experiment: First-in-Man study: iv. bolus or 20 min infusion of Compound 1; assay type: in vivo, humans; conditions: male, human, plasma, intravenous; Drug after 3.0 mg/kg BW Compound 1, 20 min infusion, 9.0 mg/(kg BW·h); mean
observable: AUC (ng·h/mL)
Quick reminder: number only, in ng·h/mL, skip the unit.

AUC lookup needed for `CC(=O)NC[C@H]1CN(c2ccc(OCC3(O)CCN(c4cc5c(cc4F)c(=O)c(C(=O)O)cn5C4CC4)CC3)c(F)c2)C(=O)O1` , thanks.
3230

====

assay: First-in-Man study: iv. bolus or 20 min infusion of Compound 1; type: in vivo, humans; conditions: male, human, plasma; Drug after 3.0 mg/kg BW Compound 1 iv. bolus; mean
observable: AUC (ng·h/mL)
Please give a number only; it is taken to be in ng·h/mL.

Could you share which AUC value was measured for CC(=O)NC[C@H]1CN(c2ccc(OCC3(O)CCN(c4cc5c(cc4F)c(=O)c(C(=O)O)cn5C4CC4)CC3)c(F)c2)C(=O)O1 [Compound 2] ?
2170
